# Test protocol: Human HepG2 cell viability assay in 384 well format
# Assay type: toxicity, cell-based
# Set-up: dose 125 nL, time 70.5 hour; concentration not given beside the values
# Condition parameters: HepG2 cells, read-out: Inhibition
Value type: cytotoxicity at 70.5 h (%)

Cc1ccc(C)c(CS(=O)(=O)CC(=O)N(C)Cc2cccc(F)c2)c1; 21.1
CCN(CC)CC1CN(Cc2cccc(C#N)c2)Cc2nccn2C1 (configuration not stated); 5.06
Cc1nc(C)n(CC2CCCN(Cc3cccc(C#N)c3)C2)n1 (configuration not stated); -15.1
Cc1cccc(C(=O)N(CC(=O)O)CC(C)C)c1; 11.7
Cc1cc(NC(=O)CNC(C)(C)c2ccc3c(c2)OCO3)on1; -2.77
COC(=O)CC(NC(=O)CCn1cccn1)c1ccc(C)cc1 (configuration not stated); -0.705
CC(C)Oc1cccc(CN2CCC(C(C)N3CCOCC3)CC2)c1 (configuration not stated); -8.8
CC(C)(O)C1CCCN(C(=O)Nc2nc(-c3ccccc3)ns2)C1 (configuration not stated); -3.5
CCOCC1CN(C(=O)c2ccoc2C)Cc2cnn(C)c21 (configuration not stated); 28.1
CS(=O)(=O)NCc1cc(=O)n2c(n1)CN(CC1CC1)CCC2; 7.49
O=C(CCn1cccn1)NS(=O)(=O)N1CCCc2ccccc21; -8.67
CCn1nc(C)c2nc(C)nc(N(C)Cc3ccco3)c21; -21.8

---

# Test protocol: Human HepG2 cell viability assay in 384 well format
# Format: toxicity, cell-based
# Parameters: dose 125 nL, time 70.5 hour; concentration not given beside the values
# Condition parameters: HepG2 cells, read-out: Inhibition
Value type: cytotoxicity at 70.5 h (%)

CCOC(=O)C1CCN(C(=O)CN2CCCC2Cc2ccccc2)CC1 (centres undefined); -17.2
CCNS(=O)(=O)c1ccc(C)c(C(=O)N(C)Cc2ccco2)c1; -5.04
Cc1nc(N2CCC(O)(c3ccccc3)CC2)c2c(C)nn(C)c2n1; -3.33
Cc1cc(C)nc(N2CCN(Cc3nccn3C)CC2)n1; -2.76
CC(=O)N1CCCC(c2nnc3n2CCN(C(=O)C2CCCCC2)C3)C1 (centres undefined); -8.2
Cc1nc(C)n(CC2CCCN2CC(=O)Nc2cc(C(C)C)no2)n1 (centres undefined); -13.1
COC(=O)c1cc(OCC2CCC2)cc(C(=O)N[C@@H]2CNCC[C@H]2O)c1; 19.4
Cc1ccc(-c2nc(CC(=O)NCC3CCOC3)cs2)o1 (centres undefined); -2.56
COc1cc(N2CC[C@@H]3OCCN(C)[C@H]3CC2)ncn1; -5.78
NC(=O)C1CCN(CC(=O)NCCn2cc(Cl)cn2)CC1; 13.2
N#Cc1nc(COc2ccc3c(c2)OCO3)oc1N1CCCCCC1; -21.8
N#Cc1ccccc1CN1C[C@H]2CC[C@@H]1CN(C(=O)c1cccnc1)C2; -10.2
CCN(Cc1ccoc1)C(C(N)=O)c1ccc(C#N)cc1 (centres undefined); -1.21
Cn1cc(CN2C[C@@H]3COC[C@]3(C(=O)NCc3cccs3)C2)cn1; -6.51
c1cnc(N2CCC3(COCCN(CC4CCOCC4)C3)C2)nc1 (centres undefined); 3.27
CS(=O)(=O)N1CC[C@]2(C[C@H](Oc3ccccn3)CO2)C1; -7.19
N[C@H]1CN(C(=O)c2ccc(Cl)cc2F)C[C@@H]1C1CC1; -4.7
c1cc(CN2CCC[C@@H](Cn3nnc(-c4cnccn4)n3)C2)ccn1; -2.89
Fc1cccc(Cl)c1Cn1ncnc1CSCCN1CCCC1; -6.36
Cc1cc(C)cc(CN2CCN(Cc3cc(C#N)n(C)c3)CC2=O)c1; -6.92
Cc1ccc(C(=O)N(C)Cc2cscn2)c(=O)[nH]1; -12.9
CCN(C)C(=O)Nc1cc(F)c(OC)cc1F; 18.4
CC(C)(O)CNc1ccc(C#N)c(C(F)(F)F)c1; -1.99
CC(C)=CCCC(C)(O)c1cc(C(N)=O)no1 (centres undefined); -9.16

---

# Test protocol: Human HepG2 cell viability assay in 384 well format
# Assay type: toxicity, cell-based
# Set-up: dose 125 nL, time 70.5 hour; concentration not given beside the values
# Condition parameters: HepG2 cells, read-out: Inhibition
Below, each of the compounds is paired with its reported cytotoxicity at 70.5 h value.
Value type: cytotoxicity at 70.5 h (%)

Cc1cnc(C(=O)NCC2CCOc3ccccc3C2)cn1 (configuration not stated); 14.4
Cn1cc(C(=O)N[C@H]2CN(S(C)(=O)=O)[C@@H]3CCCO[C@H]23)cn1; -9.45
Cc1nc(-c2ccc(F)cc2)cc(C2CCNCC2)n1; -10
CCOCC1CN(Cc2ccco2)Cc2nccn2C1 (configuration not stated); 3.52
CC(C)c1nnc2n1CC(CNCc1ccncc1)CC2 (configuration not stated); -3.85
CCCS(=O)(=O)N1CCN(C(C)(C)CO)CC1; 15.5
Cn1cc(CN2CCC(F)(F)C3(CCN(c4cccc(F)c4)C3)C2)cn1 (configuration not stated); 43.6
CCC(=O)Nc1cccc(OCC(=O)N2C[C@H]3CC[C@H]2C3)c1; -18.9
N#Cc1c[nH]nc1NCc1ccc2c(c1)OCO2; -10.8
Cn1cc(CN2CCCN(C(=O)c3cn4ccccc4n3)CC2)cn1; -0.261
CC1CN(c2ccc(NC(=O)Cn3cccn3)cc2)CCO1 (configuration not stated); -5.08
Cc1nc(C)n(CC2CCCN2c2ccnc(-c3ccccc3)n2)n1 (configuration not stated); -6.3

---

Some compounds, each annotated with its measured cytotoxicity at 70.5 h.
# Test protocol: Human HepG2 cell viability assay in 384 well format
# Format: toxicity, cell-based
# Design: dose 125 nL, time 70.5 hour; concentration not given beside the values
# Condition parameters: HepG2 cells, read-out: Inhibition
Value type: cytotoxicity at 70.5 h (%)

O=C(NCC1CC1)[C@H]1C[C@@H]2CCN(Cc3nccs3)C[C@@H]2O1; -2.02
Fc1ccc(CN2CCCC(c3cc4ncccc4[nH]3)C2)cc1 (stereo not drawn); 3.04
CN(C)C(=O)N1CC2(CCN(S(=O)(=O)C3CC3)CC2)c2ccccc21; 0.848
O=C(c1ccno1)N1CCO[C@@H]2CC(COCc3ccccn3)C[C@H]21 (stereo partly drawn); -6.23
CCc1ccc(CN(C)C(=O)c2cnc3c(c2)nc(N)n3CC)nc1; -8.01
Cc1nnc(C(C)NCC2(c3ccc(Cl)cc3)CCOCC2)o1 (stereo not drawn); -18.1
Cc1c[nH]c(CN2CC[C@@]3(O)CCN(C(=O)C4CCCC4)C[C@H]3C2)n1; 19.2
Cc1cc2cc(Nc3c(C#N)c(=O)n(C)c(=O)n3C)ccc2[nH]1; -5.45
CCn1ccnc1CN1CCCC1c1noc(C2CC2)n1 (stereo not drawn); -2.39
CCOCC(=O)N1C[C@@H]2COC[C@]2(c2nc(C)no2)C1; -7.6
COC(=O)CC(NC(=O)c1ccc(OC)cc1OC)c1cccs1 (stereo not drawn); -11.2
CC(=O)NCC(=O)N1CCC(C2CCN(Cc3ccc(Cl)cc3)C2)CC1 (stereo not drawn); -2.13
Cc1nn(C)cc1-c1ccnc(N(C)Cc2ccon2)n1; -5.47
Cc1noc(C[C@@H]2COC[C@H]3CN(C(=O)C4=CCCC4)C[C@@H]23)n1; -13.5
Cc1ccc(CN2CCc3nnc(COCCN(C)C)n3CC2)o1; -11.2
CCOCC1CN(C(=O)C2=CCCC2)Cc2cnn(CC)c21 (stereo not drawn); -16.7
COc1c(C)cnc(CN2CCOC(Cn3nc(C)cc3C)C2)c1C (stereo not drawn); -2.15
O=C(c1ccc2c(c1)CCC2)N1CCn2ncnc2C1; 3.48
CCc1nc(C2CCCN2C(=O)c2ccc3c(c2)nc(C)n3C)no1 (stereo not drawn); -8.32
COc1cc(CNCc2ccc(C(C)O)cc2)cc2c1OCO2 (stereo not drawn); 44.3
Cc1ccccc1CN1CCCN(C2CCOC2=O)CC1 (stereo not drawn); 3.44
c1csc(CN2CCC3(CCCN3CC3CC3)CC2)n1; -4.63
CCN1CCN(C2CCN(Cc3nc(C4CC4)no3)CC2)C1=O; -5.25

---

Let's look at some compounds and their measured cytotoxicity at 70.5 h.
# Test protocol: Human HepG2 cell viability assay in 384 well format
# Assay type: toxicity, cell-based
# Design: dose 125 nL, time 70.5 hour; concentration not given beside the values
# Condition parameters: HepG2 cells, read-out: Inhibition
Value type: cytotoxicity at 70.5 h (%)

CCN1CCN(Cc2csc(C(C)C)n2)CC1; -8.86
CC(C)(C)C(=O)N1CC(=O)N(Cc2ccco2)CC(O)C1 (configuration not stated); -4.89
Fc1ccccc1Cn1c(C2CCNCC2)cc2cccnc21; -4.77
CCc1nc(CN2CCCN(C(=O)COCC3CC3)CC2)cs1; -12.1
CC(=O)N1CCC(c2nc(C)cc(-c3ccccc3C(=O)O)n2)CC1; -3.01
CCOC(=O)CCCc1ccc2c(c1)CC(=O)N2; -18.2
Cc1nn(C)cc1-c1cc(C(=O)NCC(C)(C)c2ccccc2F)n[nH]1; 17.9
CCOc1ccnc(N2CCN(C(=O)c3ccoc3C)CC2)n1; -3.63
Cc1cc(I)cnc1NC(=O)C(C)(C)C; 5.65
CC(C)NC(=O)c1nc2c(s1)CCCN2C(C)C; 7.18
Cc1cc(N2CCN(C(=O)C(C)n3ccnc3C(C)C)CC2)cc(C)n1 (configuration not stated); -4.34
CCN(CC)C(=O)CNC(=O)c1cnc(-c2ccccc2)nc1; -2.98
